Reported Ki, human 5-HT2A receptor (5-HT2AR) (Homo sapiens).
Answer in nM, number only, no unit symbol.

Cc1nc2n(c(=O)c1CCN1CCC(c3noc4cc(F)ccc34)CC1)CCCC2O (centres unmarked) on human 5-HT2A receptor (5-HT2AR) (Homo sapiens) gives Ki = 1.02

Further cases:
CN1CC2c3ccccc3Oc3ccc(Cl)cc3C2C1 (centres unmarked) on human 5-HT2A receptor (5-HT2AR) (Homo sapiens) gives Ki = 0.661

Data origin: paper doi:10.1101/2021.11.14.468520v1
